System: SK-MEL-28 melanoma
Assay: NCI-60 one-dose screen, 48 h
Conditions: 10 µM unless noted
Experimental: Growth inhibition of the SK-MEL-28 human tumor cell line is measured as a screen for anti-cancer activity. Cells are grown in 96 well plates and exposed to the test compound for 48 hours. Compounds are tested at a single concentration, which is 10^-5 M for most compounds. The reported endpoint is percent growth (GI% or GIPRCNT), where numbers from 0 - 100% represent growth inhibition, and numbers from -100% - 0 represent cell death. For example, a value of 40 represents 60% growth inhibition. […]
About 83,000 compounds went through this panel and 20% of them were active in at least one assay; those are over-represented in the sample as a whole. Active and inactive are the calls of the source. The calls were made as follows: active = growth percent below 10; inactive = the rest.
Tick one outcome: TRUE (active), FALSE (inactive)

How was `N#Cc1c(-c2ccccc2)nc2c(c(-c3ccccc3)nn2-c2ccccc2)c1-c1ccc(O)cc1` classified in this test?
FALSE

Can you handle COc1cc(C2C3=C(COC3=O)N(CCO)c3cc4c(cc32)OCO4)cc(OC)c1OC (stereo unspecified) next?
FALSE

Can you handle `Cc1cccc(NC(=O)Nc2ccc(-c3ccc4c(c3)NC(=O)/C4=C\c3ccc[nH]3)cc2)c1` next?
FALSE

Can you handle `CC(=O)Oc1ccc(/C=N/NC(N)=S)nc1` next?
FALSE

Can you handle `COc1cc(/C(C)=C(\c2ccc(Cl)cc2)c2ccc(OCCN3CCCC3)cc2)ccc1F` next?
FALSE

Can you handle `Cc1nn(-c2ccccc2)c(Cl)c1/C=N\N=c1/sc2ccccc2n1C` next?
FALSE

Can you handle `C=C(C)[C@@H]1CC[C@]2(C(=O)N3CCN(C)CC3)CC[C@]3(C)[C@H](CC[C@@H]4[C@@]5(C)C/C(=C/c6ccncc6)C(=O)C(C)(C)[C@@H]5CC[C@]43C)[C@@H]12` next?
FALSE

Can you handle C=C1C(=O)O[C@H]2[C@H]1CC/C(CNC(=O)C(C)c1ccc(CC(C)C)cc1)=C\CC[C@@]1(C)O[C@@H]21 (stereo partly specified) next?
TRUE

Can you handle `O=C1Nc2cc(-c3cccc(O)c3)ccc2/C1=C/c1ccc[nH]1` next?
FALSE

Can you handle CC(=O)N1N=C(c2ccc(-n3ccc(C(F)(F)F)n3)c(F)c2)CC1c1ccc[nH]1 (stereo unspecified) next?
FALSE

Can you handle `O=C1/C=C/[C@@H](O)[C@@H]2C[C@@H](O)C[C@H]2/C=C/CCC[C@H](CCc2cccc3ccccc23)O1` next?
TRUE

Can you handle `CCN(CC)c1ccc(C(=O)c2ccccc2)cc1` next?
FALSE

Can you handle `Cc1c(C(=O)NCCC(=O)NO)sc2ncnc(Nc3ccc(F)c(Cl)c3)c12` next?
FALSE

Can you handle `Cn1cc(-c2nc(-c3c[nH]c4c(Cl)nccc34)cs2)c2cc(F)ccc21` next?
FALSE

Can you handle `CCCCCN1C=C/C(=C\C(=O)N(C)c2ccc(Oc3ccccc3)cc2)c2ccccc21` next?
FALSE

Can you handle `C#Cc1cccc(NC(=O)c2cccc(NC(=O)CCl)c2)c1` next?
FALSE

Can you handle `COc1cc2c(c(O)c1Cl)C(=O)c1c(O)cc(C[C@H](C)O)cc1[C@H]2[C@H]1c2cc(C[C@H](C)O)cc(O)c2C(=O)c2c1cc(OC)c(Cl)c2O` next?
FALSE

Can you handle `COc1ccc(-c2cnc3c(-c4cccc5ncccc45)cnn3c2)cc1` next?
FALSE

Can you handle `O=C(CSc1nc2ccccc2[nH]1)NCc1ccccc1` next?
FALSE

Can you handle `C#CCNC(=O)[C@]1(C)CC[C@]2(C)CC[C@@H]3C(=CC[C@H]4[C@@]3(C)CC[C@H]3C(C)(C)C(=O)CC[C@]43C)[C@@H]2C1` next?
FALSE

Can you handle `CCOC(=O)Oc1c(OC)cc(C(=O)c2ccc(OC)c(O)c2OC)cc1OC` next?
FALSE

Can you handle `CC(=O)c1cc2c(N)c(C(=O)Nc3cccc4ccncc34)sc2nc1C` next?
FALSE

Can you handle `COc1cc2nc(-c3ccc(C(F)(F)F)cc3)cc(OCCCN3CCOCC3)c2cc1OC` next?
FALSE

Can you handle `CCN1Cc2nc3sc(C)c(C)c3c(=O)n2C=C1C` next?
FALSE

Can you handle `COc1cccc(-c2cc(C(=O)Nc3ccc(/C=C/c4ccc(OC5CCN(C)CC5)cc4)cc3)ccc2OC)c1` next?
FALSE

Can you handle `c1ccc2c(-c3c[nH]c4ccccc34)c3c(cc2c1)[nH]c1ccccc13` next?
FALSE

Can you handle `Cc1c(C)c([N+](=O)[O-])c(C)c([N+](=O)[O-])c1C` next?
FALSE

Can you handle COc1ccc(C(=O)C2C(C#N)C(C#N)C3c4ccccc4C=CN23)cc1 (stereo unspecified) next?
FALSE

Can you handle O=C(c1nc2ccccc2[nH]1)C1C(c2ccc(Br)cc2)C2CC3CCCC[C@H]3N2[C@@]12C(=O)Nc1cc(Cl)ccc12 (stereo partly specified) next?
FALSE

Can you handle `O=C(c1nnc(Nc2ccccc2Br)o1)c1c[nH]c2ccccc12` next?
FALSE

Can you handle `CC[C@]12C=CCN3CC[C@@]4(c5cc(NC(=O)CCC(=O)O[C@H]6CC[C@H]7[C@@H]8CCC9=CC(=O)CC[C@@H]9[C@H]8CC[C@]67C)c(OC)cc5N(C)[C@H]4[C@@](O)(C(=O)OC)[C@@H]1OC(C)=O)[C@@H]32` next?
FALSE

Can you handle `COc1cc(/C=C/c2cc(O)c(C(C)=O)c(O)c2)cc2c1O[C@]1(C)CC[C@@H](O)C(C)(C)[C@H]1C2` next?
FALSE

Can you handle COc1cc(NC(C)CCCNC(=O)CCC(=O)NCCCNCCCCCCCCCCNCCCNC(=O)CCC(=O)NCCCC(C)Nc2cc(OC)cc3cccnc23)c2ncccc2c1 (stereo unspecified) next?
FALSE

Can you handle `O=C1/C=C/[C@@H](O)[C@@H]2C[C@@H](O)C[C@H]2/C=C/CCC[C@H](CCc2ccc3ncccc3c2)O1` next?
TRUE

Can you handle N#CC1C(C#N)C(C(=O)c2ccc(Br)cc2)N2c3ccccc3C=CC12 (stereo unspecified) next?
FALSE

Can you handle `COc1ccccc1NS(=O)(=O)c1cccc(C(=O)Nc2ccc(Br)cc2)c1` next?
FALSE

---

Test system: NCI-H522 lung
Assay: NCI-60 one-dose screen, 48 h
Conditions: 10 µM unless noted
This is part of a sample that, as a whole, favours compounds with a hit. Of some 83,000 tested, about 20% had one in any assay. Activity calls are given as the source filed them. The calls were made as follows: active = growth percent below 10; inactive = the rest.
Tick one outcome: 1 (active), 0 (inactive)

How was `CCCCCN1C=C/C(=C\C(=O)n2ccc3ccccc32)c2ccccc21` classified in this test?
0

Can you handle CC(Oc1ccc(C(=O)O)cc1C(F)(F)F)c1ccc(Oc2ccccc2)cn1 (stereo unspecified) next?
0

Can you handle `COC1=CC(=O)c2ccccc2C1=O` next?
0

Can you handle O=C(/C(=C\c1ccc([N+](=O)[O-])cc1)S(=O)Cc1ccc(Cl)cc1)c1ccc(Cl)cc1 (stereo unspecified) next?
0

Can you handle `O=C1Nc2cc(Cl)ccc2/C1=C\c1c(-c2ccc(F)cc2)nc2ccccn12` next?
1

Can you handle CN1CCC(=C(c2ccccc2)c2ccccc2)C(c2ccccc2)C1 (stereo unspecified) next?
0

Can you handle `O=S(=O)(NCCNc1nccc(-c2c(-c3cccc(O)c3)nc3occn23)n1)c1ccc(Cl)cc1` next?
0

Can you handle `CCNC(=O)Oc1ccc(/C(=C(\C)c2ccccc2)c2ccc(OCCN(CC)CC)cc2)cc1` next?
0

Can you handle `Cc1ccc(S(=O)(=O)Nn2c3c(cc(-c4nc5ccccc5s4)c2=O)CCCCCC3)cc1` next?
0

Can you handle `O=C(C[n+]1cccc2ccccc21)c1ccc(O)c(O)c1` next?
0

Can you handle O=[N+]([O-])CC(c1ccccc1F)c1c[nH]c2ccccc12 (stereo unspecified) next?
0

Can you handle `O=C(O)c1ccc2c(c1)C(=O)N(Cc1ccccc1)C2=O` next?
0

Can you handle O=C(C1CCC1)N1N=C(c2ccc(-n3ccc(C(F)(F)F)n3)cc2)CC1c1ccc[nH]1 (stereo unspecified) next?
0

Can you handle CC(c1ccccc1)C(C(=O)c1ccccc1)c1ccccc1 (stereo unspecified) next?
0

Can you handle `CC(C)(C)c1cc(/C=N/NC(=O)c2ccccc2NC(=O)c2cccs2)c(O)c(C(C)(C)C)c1` next?
0

Can you handle CC(Sc1nc2ccccc2c(=O)n1CCc1ccc(S(N)(=O)=O)cc1)C(=O)Nc1ccc(Cl)cc1 (stereo unspecified) next?
0

Can you handle `CN(C)CCn1c2ccc(Br)cc2c2nc3ccccc3nc21` next?
0

Can you handle COc1ccc2c(c1)C(=O)CC(c1ccccc1OC)O2 (stereo unspecified) next?
0

Can you handle `Nc1nc(Nc2ccccc2SSc2ccccc2Nc2nc(N)nc(-c3ccc(C(F)(F)F)cc3)n2)nc(-c2ccc(C(F)(F)F)cc2)n1` next?
0

Can you handle `Cc1ccc(CNc2c3ccccc3nc3cc(NC(=O)CCN4CCCC4)ccc23)cc1` next?
1

Can you handle `CCc1ccc(-c2cn3ccnc3c(-c3ccc4ncn(Cc5ccccc5)c4c3)n2)cc1` next?
0
